Assay: Cytotoxicity against rat L6 cells after 72 hrs by microplate alamar blue assay
Type: cell-based
CC50 at 72 h less than 20 µM is condition met; CC50 at 72 h greater than or equal to 20 µM is condition not met.

These solved cases illustrate the format of a correct answer.
- smiles record: "CCC(=O)N(CCCCCCCCCNC(=O)OC(C)(C)C)C1CCN(CCc2ccccc2)CC1"
  group label: "condition met"
- smiles record: "CCC(=O)N(CCCCCCCCCCCCN/C(=N/C(=O)OC(C)(C)C)NC(=O)OC(C)(C)C)C1CCN(CCc2ccccc2)CC1"
  group label: "condition met"
- smiles record: "CC(C)(C)OC(=O)NCCCCCNC1CCN(CCc2ccccc2)CC1"
  group label: "condition not met"
- smiles record: "CC(C)(C)OC(=O)NCc1cccc(CNC2CCN(CCc3ccccc3)CC2)c1"
  group label: "condition not met"

Now, please, on to the next compound.
Request: For this compound, is CC50 at 72 h lower than 20 µM? `CCC(=O)N(CCCCCCCCCCCCNC(=O)OC(C)(C)C)C1CCN(CCc2ccccc2)CC1`
Result: condition met

----------
Selectivity Index: recorded values
Test: Selectivity index, CC50 for rat L-6 cells to IC50 for Trypanosoma brucei rhodesiense ST1B900 trypomastigote […]
Assay type: functional
I'd appreciate a reply containing only the number, no unit.

Example cases with answers are listed next.
- smiles record: "CC(C)(C)OC(=O)NCCCCCCNC1CCN(CCc2ccccc2)CC1"
  measure name: "Selectivity Index"
  result value: 36
- smiles record: "CC(C)(C)OC(=O)NCCCCCCCCCCCCNC1CCN(CCc2ccccc2)CC1"
  measure name: "Selectivity Index"
  result value: 52
- smiles record: "CC(C)(C)OC(=O)NCCCCCCCCCNC1CCN(CCc2ccccc2)CC1"
  measure name: "Selectivity Index"
  result value: 48
- smiles record: "CC(C)(C)OC(=O)NCc1cccc(CNC2CCN(CCc3ccccc3)CC2)c1"
  measure name: "Selectivity Index"
  result value: 219
- smiles record: "CC(C)(C)OC(=O)NCCCCCCCCNC1CCN(CCc2ccccc2)CC1"
  measure name: "Selectivity Index"
  result value: 130

Request: What value of Selectivity Index has been reported for the following compound? `CC(C)(C)OC(=O)NCCCCCCCNC1CCN(CCc2ccccc2)CC1`
Result: 41
